- Tested on: soybean
- measurementNotes: Test C postemergence
- Assay type: in vivo, Glycine max
- conditionNotes: Postemergence, 125 g ai/ha; 0 to 100 scale (0 no effect, 100 complete control), 10 days
Items are presented alongside their recorded Plant response rating, Soybean.
observable: Plant response rating, Soybean

>>> valueobserved("CC(C)c1ncn(-c2cc(C(=O)N3CC(C(F)(F)F)Oc4c(Cl)cccc43)ccn2)n1 (single isomer, unassigned) [Compound 330]")
100
>>> valueobserved("CCOc1ncn(-c2cccc(C(=O)N3C[C@H](C)Oc4c(Cl)cccc43)c2)n1 [Compound 311]")
70
>>> valueobserved("Cc1ccc(-n2cnc(CC#N)n2)cc1C(=O)N1C[C@H](C)Oc2c(Cl)cccc21 [Compound 364]")
100
>>> valueobserved("Cc1ccc(-n2cnc(C(C)O)n2)cc1C(=O)N1CC(C)Oc2c(Cl)cccc21 (mixture of isomers) [Compound 358]")
100
>>> valueobserved("Cc1cccc2c1OC(C(F)(F)F)CN2C(=O)c1ccnc(-n2cnc(C(C)C)n2)c1 (single isomer, unassigned) [Compound 328]")
100
